B1: Cyclin-F, residues 28 to 80; numbered along this chain, P41002 (parent)
chain: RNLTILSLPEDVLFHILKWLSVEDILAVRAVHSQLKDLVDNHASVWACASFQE

# Variants of: B1
# Test description: abundance fitness (aPCA) (normalised: wild type 0, dead -1); higher = more abundant; growth selection in yeast, the domain comes from the species named
# Experimental setup: Homo sapiens
# label = Satisfied if abundance fitness >= -0.09 else Not satisfied

RNLTILSLPEDVLFHILKWLSVEDILAVSAVHSQLKDLVDNHASVWACASFQE [R29S] | Not satisfied
RNLTILSLPEDVLFHILKWLSVEDILAVRAVHSVLKDLVDNHASVWACASFQE [Q34V] | Not satisfied
RNLTNLSLPEDVLFHILKWLSVEDILAVRAVHSQLKDLVDNHASVWACASFQE [I5N] | Not satisfied
RNLTILSLPRDVLFHILKWLSVEDILAVRAVHSQLKDLVDNHASVWACASFQE [E10R] | Satisfied

Has RNLTILSLPEDVLFHILKWLSVEGILAVRAVHSQLKDLVDNHASVWACASFQE [D24G] a recorded abundance fitness greater than or equal to -0.09?
Not satisfied

Has RNLTILSLPEDVLFHILKWLSVEDILAVRAVHAQLKDLVDNHASVWACASFQE [S33A] a recorded abundance fitness greater than or equal to -0.09?
Not satisfied

Has RNLTILSLPEDVLFHILKWLSVEDILAVRTVHSQLKDLVDNHASVWACASFQE [A30T] a recorded abundance fitness greater than or equal to -0.09?
Satisfied

Has RNLTILSLPEFVLFHILKWLSVEDILAVRAVHSQLKDLVDNHASVWACASFQE [D11F] a recorded abundance fitness greater than or equal to -0.09?
Not satisfied

Has RNLTILSLPEDVLFHILKWLSVEDILATRAVHSQLKDLVDNHASVWACASFQE [V28T] a recorded abundance fitness greater than or equal to -0.09?
Not satisfied
